assay: in vitro; conditions: human, hela cells, % viability
In this section, each of the compounds is paired with its reported viability at 28.5 h, 10 µM.
Report as a plain number; the unit % is understood.

Solved entries:
IN: // query viability at 28.5 h, 10 µM value for entry CCn1cc(CN2CCC(c3cc(Cc4cccc(OC)c4)cc(C)n3)CC2)c(C)n1 [CBK285671]
OUT: 89.2

IN: What would you report for Nc1n[nH]c(=O)c2ncn([C@H]3C[C@@H](O)[C@@H](CO)O3)c12 [CBK201233] ?
OUT: 91.4

IN: Ok, now Cc1cccc(OCCCC(=O)Nc2ccc(S(N)(=O)=O)cc2)c1C [CBK267963]
OUT: 90.8

IN: Item: CN1CCN(C(=O)CC[C@@H]2CNC(=O)[C@@H]3C[C@H](NC(=O)c4cccc(F)c4)CN23)CC1 [CBK289015]
OUT: 92.2

IN: How about this compound: COc1ccc(OC)c(NC(=O)NCCc2c[nH]cn2)c1 [CBK269956]
OUT: 92.4

***
IN: Given O=C(O)C1CCCN(C(=O)NCc2c(Cl)cccc2Cl)C1 (stereo not shown) [CBK161362] , state its recorded viability at 28.5 h, 10 µM.
OUT: 90

IN: // query: O=C(NC1CCCCC1)O[C@@H]1CO[C@H]2[C@@H]1OC[C@@H]2Nc1nccc(-c2cccs2)n1 [CBK289514]
OUT: 87.4

Data provenance: paper PMC12040169
